The measurements presented in this section are drawn from paper PMC4170737.

# Experimental System: UniProt:O15305

>  <Compound>
CN(C)C(=O)c1cccc(-n2sc3ccccc3c2=O)c1 [Compound 2q]

>  <Activity at PMM2 (in words)>
no activity

$$$$
>  <Compound>
O=C(O)c1cccc(-n2sc3ccccc3c2=O)c1 [Compound 2n]

>  <Activity at PMM2 (in words)>
no activity

$$$$

----------
# Experimental Details: Plasma protein binding, mouse
# Condition Summary: 1 μM

>  <Compound Smiles>
COC(=O)c1cccc(-n2sc3ccccc3c2=O)c1

>  <Plasma Protein Binding / % Bound>
48.0

$$$$
>  <Compound Smiles>
CN(C)C(=O)c1cccc(-n2sc3ccccc3c2=O)c1

>  <Plasma Protein Binding / % Bound>
48.0

$$$$
>  <Compound Smiles>
O=C(O)c1cccc(-n2sc3ccccc3c2=O)c1

>  <Plasma Protein Binding / % Bound>
18.8

$$$$
>  <Compound Smiles>
CN(C)S(=O)(=O)c1cccc(-n2sc3ccccc3c2=O)c1

>  <Plasma Protein Binding / % Bound>
35.6

$$$$

----------
# Experimental System: human PMM2 (Homo sapiens)
# Sequence (O15305 whole entry): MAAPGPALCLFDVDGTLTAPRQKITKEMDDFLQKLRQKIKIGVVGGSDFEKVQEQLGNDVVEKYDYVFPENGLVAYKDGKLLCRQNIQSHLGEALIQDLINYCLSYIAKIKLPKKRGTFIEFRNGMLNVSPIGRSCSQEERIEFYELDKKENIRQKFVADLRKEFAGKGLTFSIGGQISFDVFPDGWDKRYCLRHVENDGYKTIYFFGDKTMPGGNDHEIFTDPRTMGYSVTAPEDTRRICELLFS
pIC50: −log10 of the molar value.

>  <Compound Smiles>
CN(C)C(=O)c1cccc(-n2sc3ccccc3c2=O)c1

>  <pIC50>
< 4.30

$$$$

----------
# Experimental Details: Hepatic microsome stability, human
# Condition Summary: human (first or only value of cell)
Measurement Kind: Hepatic Microsome Stability

>  <Compound Smiles>
COC(=O)c1cccc(-n2sc3ccccc3c2=O)c1

>  <Test Value>
72.4 % Remaining at 1hr

$$$$
>  <Compound Smiles>
CN(C)C(=O)c1cccc(-n2sc3ccccc3c2=O)c1

>  <Test Value>
45.7 % Remaining at 1hr

$$$$
>  <Compound Smiles>
CN(C)S(=O)(=O)c1cccc(-n2sc3ccccc3c2=O)c1

>  <Test Value>
72.4 % Remaining at 1hr

$$$$
>  <Compound Smiles>
O=C(O)c1cccc(-n2sc3ccccc3c2=O)c1

>  <Test Value>
100 % Remaining at 1hr

$$$$

----------
# Experimental Details: Plasma stability, human
# Condition Summary: human plasma: 1× PBS, pH 7.4, 1:1 (first value of cell)
Known Plasma Stability of a selection of molecules
Measurement Kind: Plasma Stability (% Remaining at 3hrs)

>  <Compound Smiles>
COC(=O)c1cccc(-n2sc3ccccc3c2=O)c1

>  <Test Value>
15.4

$$$$
>  <Compound Smiles>
O=C(O)c1cccc(-n2sc3ccccc3c2=O)c1

>  <Test Value>
50.2

$$$$
>  <Compound Smiles>
CN(C)S(=O)(=O)c1cccc(-n2sc3ccccc3c2=O)c1

>  <Test Value>
11.4

$$$$
>  <Compound Smiles>
CN(C)C(=O)c1cccc(-n2sc3ccccc3c2=O)c1

>  <Test Value>
18.9

$$$$

----------
# Experimental Details: Hepatic microsome stability, mouse
# Condition Summary: mouse (first or only value of cell)
Known Hepatic Microsome Stability of a selection of compounds
Measurement Kind: Hepatic Microsome Stability (% Remaining at 1hr)

>  <Compound>
CN(C)S(=O)(=O)c1cccc(-n2sc3ccccc3c2=O)c1 [Compound 2s]

>  <Measurement Kind>
Hepatic Microsome Stability

>  <Test Value>
100

$$$$
>  <Compound>
O=C(O)c1cccc(-n2sc3ccccc3c2=O)c1 [Compound 2n]

>  <Measurement Kind>
Hepatic Microsome Stability

>  <Test Value>
100

$$$$
>  <Compound>
COC(=O)c1cccc(-n2sc3ccccc3c2=O)c1 [Compound 2o]

>  <Measurement Kind>
Hepatic Microsome Stability

>  <Test Value>
45.9

$$$$
>  <Compound>
CN(C)C(=O)c1cccc(-n2sc3ccccc3c2=O)c1 [Compound 2q]

>  <Measurement Kind>
Hepatic Microsome Stability

>  <Test Value>
56.6

$$$$
